system.under.test: DRB1*0405 (DR4w15) (Homo sapiens, UniProt P01903+P01911, A100R/A169T/D86S/F76Y/I96L/K127E/L162R/M171V/N62H/P40V/Q125Y/R42H/S133A/S149N/S66Y/V115G/V209L/W38E)
Construct: Epstein-Barr virus (EBV) transformed homozygous cell lines were used as sources; endogenous in cells; host or cells: KT3 (EBV-transformed homozygous B cell line)
experimental.protocol: biochemical
Type: binding
particulars: read-out: Binding Capacity (IC 50% nM) Other Alleles DR4w15
readout: IC50

Incoming: # get_value(readout='IC50', item= CC[C@H](C)[C@H](NC(=O)[C@H](CC(C)C)NC(=O)[C@H](CC(=O)O)NC(=O)[C@@H](NC(=O)[C@H](Cc1ccccc1)NC(=O)[C@H](Cc1ccc(O)cc1)NC(=O)[C@H](Cc1c[nH]cn1)NC(=O)[C@H](Cc1c[nH]cn1)NC(=O)[C@@H](N)[C@@H](C)O)C(C)C)C(=O)NCC(=O)NCC(=O)N[C@@H](C)C(=O)N[C@@H](CCSC)C(=O)N[C@@H](CC(C)C)C(=O)N[C@@H](CO)C(=O)N[C@@H](CC(C)C)C(=O)O [Peptide 1136.47] )
Outgoing: > 1000 nM

###

system.under.test: DRB1*0101 (DR1) (Homo sapiens, UniProt P01903+P01911, A100R/D57E/F55L/F60I/F76Y/I96L/L162R/M171V/P40L/Q125E/R42F/V115G/Y59C)
Construct: Epstein-Barr virus (EBV) transformed homozygous cell lines were used as sources; endogenous in cells; host or cells: LG2 (EBV-transformed homozygous B cell line)
experimental.protocol: biochemical
Format: binding
particulars: Binding Capacity (IC 50% nM) DR1,4,7 DRB1
readout: IC50

Incoming: # get_value(readout='IC50', item= CC(C)C[C@H](NC(=O)[C@H](Cc1c[nH]c2ccccc12)NC(=O)[C@@H](NC(=O)[C@H](Cc1ccccc1)NC(=O)[C@@H](NC(=O)[C@@H]1CCCN1C(=O)[C@H](CC(C)C)NC(=O)[C@H](C)NC(=O)[C@@H]1CCCN1C(=O)[C@H](CC(C)C)NC(=O)[C@H](Cc1ccccc1)NC(=O)[C@H](Cc1ccccc1)NC(=O)[C@H](CCC(N)=O)NC(=O)[C@H](CO)NC(=O)[C@@H](NC(=O)[C@@H](N)CC(C)C)[C@@H](C)O)C(C)C)[C@@H](C)O)C(=O)O [Peptide 1136.16] )
Outgoing: < 1000 nM

###

system.under.test: DRB1*1501 (DR2w2b) (Homo sapiens, UniProt P01903+P01911)
Construct: expressed in transfected cells; host or cells: transfected fibroblasts L466.1
experimental.protocol: biochemical
Type: binding
particulars: read-out: Binding Capacity (IC 50% nM) Other Alleles DR2w2b
readout: IC50

Incoming: # get_value(readout='IC50', item= CC(C)C[C@H](NC(=O)[C@H](Cc1c[nH]c2ccccc12)NC(=O)[C@@H](NC(=O)[C@H](Cc1ccccc1)NC(=O)[C@@H](NC(=O)[C@@H]1CCCN1C(=O)[C@H](CC(C)C)NC(=O)[C@H](C)NC(=O)[C@@H]1CCCN1C(=O)[C@H](CC(C)C)NC(=O)[C@H](Cc1ccccc1)NC(=O)[C@H](Cc1ccccc1)NC(=O)[C@H](CCC(N)=O)NC(=O)[C@H](CO)NC(=O)[C@@H](NC(=O)[C@@H](N)CC(C)C)[C@@H](C)O)C(C)C)[C@@H](C)O)C(=O)O [Peptide 1136.16] )
Outgoing: > 1000 nM

###

Provide the reported IC50 of each item.
system.under.test: DRB1*0301 (DR3w17) (Homo sapiens, UniProt P01903+P01911, A100K/A102G/A103R/A169T/F55Y/I96L/K41T/L162R/M171V/P40S/Q125H/Q178H/Q39Y/R42S/S66N/T106N/T262R/W38E/Y61H)
experimental.protocol: biochemical
particulars: Binding Capacity (IC50% nM) DR3

Incoming: # get_value(readout='IC50', item= CC[C@H](C)[C@H](NC(=O)[C@H](CC(=O)O)NC(=O)[C@H](CC(C)C)NC(=O)[C@@H](NC(=O)CNC(=O)[C@@H](NC(=O)[C@@H](NC(=O)[C@@H](NC(=O)[C@@H](NC(=O)[C@H](C)NC(=O)[C@H](CC(C)C)NC(=O)[C@@H](NC(=O)[C@H](CC(N)=O)NC(=O)[C@H](CO)NC(=O)[C@H](CC(C)C)NC(=O)[C@@H](N)CC(N)=O)C(C)C)[C@@H](C)O)[C@@H](C)CC)[C@@H](C)O)[C@@H](C)O)C(C)C)C(=O)O [Peptide 1136.24] )
Outgoing: > 10000 nM

Incoming: # get_value(readout='IC50', item= CC[C@H](C)[C@H](NC(=O)[C@H](CC(C)C)NC(=O)[C@H](CC(=O)O)NC(=O)[C@@H](NC(=O)[C@H](Cc1ccccc1)NC(=O)[C@H](Cc1ccc(O)cc1)NC(=O)[C@H](Cc1c[nH]cn1)NC(=O)[C@H](Cc1c[nH]cn1)NC(=O)[C@@H](N)[C@@H](C)O)C(C)C)C(=O)NCC(=O)NCC(=O)N[C@@H](C)C(=O)N[C@@H](CCSC)C(=O)N[C@@H](CC(C)C)C(=O)N[C@@H](CO)C(=O)N[C@@H](CC(C)C)C(=O)O [Peptide 1136.47] )
Outgoing: > 10000 nM

###

system.under.test: DRB1*0401 (DR4w4) (Homo sapiens, UniProt P01903+P01911, A100K/A169T/F76Y/I96L/K127E/L162R/M171V/N62H/P40V/Q125Y/R42H/S133A/S149N/S66Y/V115G/V209L/W38E)
Construct: Epstein-Barr virus (EBV) transformed homozygous cell lines were used as sources; endogenous in cells; host or cells: PREISS (EBV-transformed homozygous B cell line)
experimental.protocol: biochemical
Type: binding
particulars: Binding Capacity (IC50% nM) DR4w4
No end group written: not given here.
Response field label takes MET when IC50 is strictly below 800 nM and NOT MET in all other cases.

Incoming: Regarding LAAIIFLFGPPTALRS [Peptide 1136.28] , kindly confirm whether its IC50 is beneath 800 nM.
Outgoing: NOT MET

Incoming: Regarding LWWSTMYLTHHYFVDL [Peptide 1136.46] , kindly confirm whether its IC50 is beneath 800 nM.
Outgoing: NOT MET

Incoming: Regarding LFHYYFLSEKAPGSTV [Peptide 1136.04] , kindly confirm whether its IC50 is beneath 800 nM.
Outgoing: MET

Incoming: Regarding GPPTALRSFGFAFGYM [Peptide 1136.29] , kindly confirm whether its IC50 is beneath 800 nM.
Outgoing: NOT MET

###

system.under.test: DRB1*0405 (DR4w15) (Homo sapiens, UniProt P01903+P01911, A100R/A169T/D86S/F76Y/I96L/K127E/L162R/M171V/N62H/P40V/Q125Y/R42H/S133A/S149N/S66Y/V115G/V209L/W38E)
Construct: Epstein-Barr virus (EBV) transformed homozygous cell lines were used as sources; endogenous in cells; host or cells: KT3 (EBV-transformed homozygous B cell line)
experimental.protocol: biochemical
Format: binding
particulars: read-out: Binding Capacity (IC 50% nM) Other Alleles DR4w15
readout: IC50

Incoming: # get_value(readout='IC50', item= CC(C)[C@H](NC(=O)[C@H](Cc1ccccc1)NC(=O)[C@H](CCCCN)NC(=O)[C@H](Cc1ccc(O)cc1)NC(=O)[C@H](C)N)C(=O)N[C@H](C(=O)N1CCC[C@H]1C(=O)NCC(=O)N[C@@H](C)C(=O)N[C@@H](C)C(=O)N[C@H](C(=O)N1CCC[C@H]1C(=O)N[C@@H](Cc1ccc(O)cc1)C(=O)N[C@@H](C)C(=O)NCC(=O)O)[C@@H](C)O)C(C)C [Peptide 27.412] )
Outgoing: > 1000 nM

Incoming: # get_value(readout='IC50', item= CC(C)[C@H](NC(=O)[C@H](Cc1ccccc1)NC(=O)[C@@H](N)CCCCN)C(=O)N[C@H](C(=O)N1CCC[C@H]1C(=O)NCC(=O)N[C@@H](C)C(=O)N[C@@H](C)C(=O)N[C@H](C(=O)N1CCC[C@H]1C(=O)N[C@@H](Cc1ccc(O)cc1)C(=O)N[C@@H](C)C(=O)NCC(=O)N[C@@H](CCC(=O)O)C(=O)N1CCC[C@H]1C(=O)O)[C@@H](C)O)C(C)C [Peptide F107.17] )
Outgoing: > 1000 nM

###

Provide the reported IC50 of each item.
system.under.test: DRB1*0101 (DR1) (Homo sapiens, UniProt P01903+P01911, A100R/D57E/F55L/F60I/F76Y/I96L/L162R/M171V/P40L/Q125E/R42F/V115G/Y59C)
Construct: Epstein-Barr virus (EBV) transformed homozygous cell lines were used as sources; endogenous in cells; host or cells: LG2 (EBV-transformed homozygous B cell line)
experimental.protocol: biochemical
Format: binding
particulars: Binding Capacity (IC 50% nM) DR1,4,7 DRB1

Incoming: # get_value(readout='IC50', item= CC[C@H](C)[C@H](NC(=O)[C@H](C)NC(=O)[C@H](CC(C)C)NC(=O)[C@H](CCCCN)NC(=O)[C@H](CCCNC(=N)N)NC(=O)[C@@H](N)CCSC)C(=O)N[C@@H](CC(C)C)C(=O)N[C@@H](CO)C(=O)N[C@H](C(=O)N[C@@H](CO)C(=O)N[C@@H](CO)C(=O)N[C@@H](Cc1ccccc1)C(=O)N[C@@H](CC(C)C)C(=O)N[C@@H](Cc1ccccc1)C(=O)N[C@H](C(=O)O)C(C)C)C(C)C [Peptide 27.388] )
Outgoing: < 1000 nM

Incoming: # get_value(readout='IC50', item= CC(C)[C@H](NC(=O)[C@H](Cc1ccccc1)NC(=O)[C@H](CCCCN)NC(=O)[C@H](Cc1ccc(O)cc1)NC(=O)[C@H](C)N)C(=O)N[C@H](C(=O)N1CCC[C@H]1C(=O)NCC(=O)N[C@@H](C)C(=O)N[C@@H](C)C(=O)N[C@H](C(=O)N1CCC[C@H]1C(=O)N[C@@H](Cc1ccc(O)cc1)C(=O)N[C@@H](C)C(=O)NCC(=O)O)[C@@H](C)O)C(C)C [Peptide 27.412] )
Outgoing: < 1000 nM

Incoming: # get_value(readout='IC50', item= CC[C@H](C)[C@H](NC(=O)[C@H](CC(C)C)NC(=O)[C@H](Cc1ccccc1)NC(=O)[C@H](CS)NC(=O)[C@@H](NC(=O)[C@H](C)NC(=O)[C@@H](N)Cc1ccccc1)[C@@H](C)O)C(=O)N1CCC[C@H]1C(=O)N[C@@H](CC(C)C)C(=O)N[C@H](C(=O)N[C@@H](CO)C(=O)N[C@@H](CCC(N)=O)C(=O)N[C@@H](Cc1ccccc1)C(=O)N[C@@H](Cc1ccccc1)C(=O)N[C@@H](CC(C)C)C(=O)N1CCC[C@H]1C(=O)O)[C@@H](C)O [Peptide 1136.14] )
Outgoing: < 1000 nM
